System: HepG2 human hepatocarcinoma cells
Test: Rotenone ATP Assay (Complex I Assay)
Assay type: cell-based
Conditions: summary of rotenone assays
property: Complex I by-pass activity / restoring ATP production, in words

// known answers, use as guide
molecule: CC(C)=CCC/C(C)=C/CC/C(C)=C/CC[C@@](C)(O)CCC1=C(C)C(=O)C(C)=C(C)C1=O (stereo in doubt) [Vatiquinone, reference compound]
tested on: HepG2 human hepatocarcinoma cells
value: not

molecule: CC1=C(C)C(=O)C(CC[C@](C)(O)CC/C=C(\C)CCC=C(F)F)=C(C)C1=O [Compound H]
tested on: HepG2 human hepatocarcinoma cells
value: active

molecule: CC1=C(C)C(=O)C(CC[C@](C)(O)CC/C=C(\C)CC/C=C(\C)CCC=C2COC2)=C(C)C1=O [Compound E]
tested on: HepG2 human hepatocarcinoma cells
value: active

molecule: CC1=C(C)C(=O)C(CC[C@](C)(O)CCCCCCCCC(F)(F)F)=C(C)C1=O [Compound N]
tested on: HepG2 human hepatocarcinoma cells
value: active

molecule: CC1=C(C)C(=O)C(CC[C@@](C)(O)CC/C=C(\C)CCC=C(F)F)=C(C)C1=O [Compound L]
tested on: HepG2 human hepatocarcinoma cells
value: active

Given item CC1(C)CC[C@]2(NC(=O)C(C)(F)F)CC[C@]3(C)[C@H](C(=O)C=C4[C@@]5(C)C=C(C#N)C(=O)C(C)(C)[C@@H]5CC[C@]43C)[C@@H]2C1 [Omaveloxolone, reference compound] , the value recorded as its Complex I by-pass activity / restoring ATP production, in words is not

Recorded values, source patent US20230303506A1.
